assay_protocol: Blood concentration of Compound A during continuous intravenous administration to normal rabbit
Type: in vivo
condition_notes: female, Japanese white, plasma, 60 minutes after administration started, continuous intravenous 1000 ng/kg/min
readout_label: concentration at 60 min (ng/mL)

compound | readout_label | units_label | experimental_result
CCC(CCCCl)[C@@H](O)C/C=C/[C@@H]1[C@@H](C/C=C\CCCC(=O)O)[C@H](Cl)C[C@H]1O (stereo partly shown) [Compound A] | concentration at 60 min | ng/mL | 24.3

###

assay_protocol: Blood concentration of Compound A during continuous intravenous administration to normal rabbit
Assay type: in vivo
condition_notes: female, Japanese white, plasma, 60 minutes after administration started, continuous intravenous 100 ng/kg/min
readout_label: concentration at 60 min (ng/mL)

compound | units_label | experimental_result
CCC(CCCCl)[C@@H](O)C/C=C/[C@@H]1[C@@H](C/C=C\CCCC(=O)O)[C@H](Cl)C[C@H]1O (stereo partly shown) | ng/mL | 2

###

# Time of 50% hydrolysis per entry
assay_protocol: In vitro hydrolysis test in rabbit plasma (release of Compound A, LC/MS/MS)
Type: in vitro ADME
condition_notes: 37° C.
readout_label: Time of 50% hydrolysis (days)

chemical_smiles | experimental_result
CCCCCCCCCCCCCCCC#CCOC(=O)CCC/C=C\C[C@@H]1[C@@H](/C=C/C[C@H](O)C2(CC)CCC2)[C@H](O)C[C@H]1Cl | 26.2
CCCCCCCCCCCCCCCOc1cccc(C(=O)OCCOC(=O)CCC/C=C\C[C@@H]2[C@@H](/C=C/C[C@H](O)C3(CC)CCC3)[C@H](O)C[C@H]2Cl)c1 | 10.6
CCCCCCCCCCCCCCCCc1ccc(C(=O)OCCCOC(=O)CCC/C=C\C[C@@H]2[C@@H](/C=C/C[C@H](O)C3(CC)CCC3)[C@H](O)C[C@H]2Cl)cc1 | 7.8
CCCCCCCCCCCCCCCOc1ccc(C(=O)OCCOC(=O)CCC/C=C\C[C@@H]2[C@@H](/C=C/C[C@H](O)C3(CC)CCC3)[C@H](O)C[C@H]2Cl)cc1 | 7.3

Where do the numbers come from? From patent US9085523B2.
